Values compiled from ChEMBL document CHEMBL1129953.

# assayed-system: Sodium-dependent dopamine transporter (Rattus norvegicus)
# assay-text: Ratio of reuptake inhibition on DA with respect to binding affinity of DA
# Type: functional
measurement-label: Ratio

cpd-smiles: C(=C\c1cccs1)/CN1CCN(CCOC(c2ccccc2)c2ccccc2)CC1
meas-value: 1.6

cpd-smiles: c1ccc(C(OCCN2CCN(CCCc3cccnc3)CC2)c2ccccc2)cc1
meas-value: 0.9

cpd-smiles: Fc1ccc(C(OCCN2CCN(Cc3cc4ccccc4[nH]3)CC2)c2ccc(F)cc2)cc1
meas-value: 18.6

cpd-smiles: Fc1ccc(C(OCCN2CCN(CCCc3cccs3)CC2)c2ccc(F)cc2)cc1
meas-value: 1.8

cpd-smiles: c1ccc(C(OCCN2CCN(Cc3cc4ccccc4s3)CC2)c2ccccc2)cc1
meas-value: 1.1

cpd-smiles: Fc1ccc(C(OCCN2CCN(C/C=C/c3cccs3)CC2)c2ccc(F)cc2)cc1
meas-value: 5.9

cpd-smiles: Fc1ccc(C(OCCN2CCN(CCCc3cccnc3)CC2)c2ccc(F)cc2)cc1
meas-value: 1.3

cpd-smiles: Fc1ccc(C(OCCN2CCN(Cc3cc4ccccc4s3)CC2)c2ccc(F)cc2)cc1
meas-value: 8.3

cpd-smiles: Fc1ccc(C(OCCN2CCN(Cc3ccc4ncccc4c3)CC2)c2ccc(F)cc2)cc1
meas-value: 1.2

cpd-smiles: Fc1ccc(C(OCCN2CCN(C/C=C/c3cccnc3)CC2)c2ccc(F)cc2)cc1
meas-value: 1.1

cpd-smiles: c1ccc(C(OCCN2CCN(Cc3ccc4ncccc4c3)CC2)c2ccccc2)cc1
meas-value: 0.7
